target: UniProt:P30560; test: Inhibition dose for AVP (30 milliunits/kg, iv) induced vasoconstriction when orally administarted; format: functional, organism-based
Here the recorded ID50 is given for each entry.
Report the figure in µmol/kg without appending any unit label.

                         compound_structure  system_under_test  unit_descriptor  numeric_result
0  CC(=O)NCCOc1ccc(C(=O)N2CCC(N3C(=O)CCc4ccccc43)CC2)cc1     UniProt:P30560          µmol/kg             7.7
1  CC(=O)NCCCCCOc1ccc(C(=O)N2CCC(N3C(=O)CCc4ccccc43)CC2)cc1     UniProt:P30560          µmol/kg             4.7
2  CC(=O)NCCCCOc1ccc(C(=O)N2CCC(N3C(=O)CCc4ccccc43)CC2)cc1     UniProt:P30560          µmol/kg             5.3

# ---- query molecule ----
Record for "CC(=O)NCCCOc1ccc(C(=O)N2CCC(N3C(=O)CCc4ccccc43)CC2)cc1" under target or system UniProt:P30560: ID50 reported as 4.4

----------
// values below are IC50; system is Vasopressin V1a receptor (Rattus norvegicus, UniProt P30560)
Sequence (P30560 whole entry): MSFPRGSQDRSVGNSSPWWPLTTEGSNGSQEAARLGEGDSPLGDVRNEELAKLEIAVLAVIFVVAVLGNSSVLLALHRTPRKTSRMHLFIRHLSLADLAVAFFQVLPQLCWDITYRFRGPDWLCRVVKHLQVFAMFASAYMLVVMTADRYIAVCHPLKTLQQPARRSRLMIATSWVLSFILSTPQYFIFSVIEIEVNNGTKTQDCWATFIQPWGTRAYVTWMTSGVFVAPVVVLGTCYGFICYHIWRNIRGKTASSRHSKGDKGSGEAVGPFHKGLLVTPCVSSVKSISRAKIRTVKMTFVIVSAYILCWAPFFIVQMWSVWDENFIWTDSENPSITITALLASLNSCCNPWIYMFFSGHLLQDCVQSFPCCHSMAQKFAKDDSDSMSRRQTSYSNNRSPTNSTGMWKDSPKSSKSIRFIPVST
Supply the numeric figure in µM, leaving out any unit text.

Recorded IC50, per entry:
>>> print(df.to_string())
                         compound_structure  numeric_result
0  O=C(c1cccc([N+](=O)[O-])c1)N1CCC(N2C(=O)CCc3ccccc32)CC1             3.1
1  O=C(c1ccccc1O)N1CCC(N2C(=O)CCc3ccccc32)CC1             1.5
2  CC(=O)N(C)CCCOc1ccc(C(=O)N2CCC(N3C(=O)CCc4ccccc43)CC2)cc1            0.54
3  NCCCCCCCCOc1ccc(C(=O)N2CCC(N3C(=O)CCc4ccccc43)CC2)cc1           0.068
4  CCC(=O)NCCCOc1ccc(C(=O)N2CCC(N3C(=O)CCc4ccccc43)CC2)cc1            0.78
5  O=C(c1ccco1)N1CCC(N2C(=O)CCc3ccccc32)CC1              11
6  CC(=O)NCCOc1ccc(C(=O)N2CCC(N3C(=O)CCc4ccccc43)CC2)cc1            0.42
7  NCCOc1ccc(C(=O)N2CCC(N3C(=O)CCc4ccccc43)CC2)cc1               2

In the following, a different molecule is considered.
Hey, Vasopressin V1a receptor (Rattus norvegicus, UniProt P30560) data for "NCCCCCOc1ccc(C(=O)N2CCC(N3C(=O)CCc4ccccc43)CC2)cc1" : IC50 came out at 0.28

----------
Parameter pIC50, tested on Vasopressin V1a receptor (Rattus norvegicus), listed per item.
pIC50 is a log-scale quantity: -log10 of the concentration expressed in molar.

In [3]: df
Out[3]:
                         compound_structure  numeric_result
0  NCCCCOc1ccc(C(=O)N2CCC(N3C(=O)CCc4ccccc43)CC2)cc1            6.48
1  O=C(c1ccc([N+](=O)[O-])cc1)N1CCC(N2C(=O)CCc3ccccc32)CC1            5.70
2  CCc1ccc(C(=O)N2CCC(N3C(=O)CCc4ccccc43)CC2)cc1            6.30
3  COc1ccc(C(=O)N2CCC(N3C(=O)CCc4ccccc43)CC2)cc1            6.21
4  Cc1cccc(C(=O)N2CCC(N3C(=O)CCc4ccccc43)CC2)c1            5.89
5  O=C(c1ccccc1[N+](=O)[O-])N1CCC(N2C(=O)CCc3ccccc32)CC1            5.08

Observed pIC50, Vasopressin V1a receptor (Rattus norvegicus), "O=C(c1ccc(F)cc1)N1CCC(N2C(=O)CCc3ccccc32)CC1" : 5.85

Case "NC(=O)c1ccc(C(=O)N2CCC(N3C(=O)CCc4ccccc43)CC2)cc1" , Vasopressin V1a receptor (Rattus norvegicus), pIC50 recorded as 4.96

// compound "CCCCCCOc1ccc(C(=O)N2CCC(N3C(=O)CCc4ccccc43)CC2)cc1" , assay Vasopressin V1a receptor (Rattus norvegicus), pIC50 value: 5.82

----------
target: Vasopressin V1a receptor (Rattus norvegicus)
measurement name: pIC50
Friendly reminder that pIC50 comes from taking -log10 of the concentration in mol/L.

In [3]: df
Out[3]:
                         compound_structure  numeric_result
0  O=C(c1ccc(Cl)cc1)N1CCC(N2C(=O)CCc3ccccc32)CC1            5.92

Fill in: Vasopressin V1a receptor (Rattus norvegicus) pIC50 for "CC(=O)NCCCCOc1ccc(C(=O)N2CCC(N3C(=O)CCc4ccccc43)CC2)cc1" = 6.68

Test item "O=C(c1ccc(O)cc1)N1CCC(N2C(=O)CCc3ccccc32)CC1" ; Vasopressin V1a receptor (Rattus norvegicus); reported pIC50 was 5.89

The recorded pIC50 with Vasopressin V1a receptor (Rattus norvegicus) for "CCCCc1ccc(C(=O)N2CCC(N3C(=O)CCc4ccccc43)CC2)cc1" was 6.46

Simply: "CC(=O)NCCCCCOc1ccc(C(=O)N2CCC(N3C(=O)CCc4ccccc43)CC2)cc1" , Vasopressin V1a receptor (Rattus norvegicus), pIC50 = 6.80

----------
target: Vasopressin V2 receptor (Rattus norvegicus, UniProt Q00788)
Sequence (Q00788 whole entry): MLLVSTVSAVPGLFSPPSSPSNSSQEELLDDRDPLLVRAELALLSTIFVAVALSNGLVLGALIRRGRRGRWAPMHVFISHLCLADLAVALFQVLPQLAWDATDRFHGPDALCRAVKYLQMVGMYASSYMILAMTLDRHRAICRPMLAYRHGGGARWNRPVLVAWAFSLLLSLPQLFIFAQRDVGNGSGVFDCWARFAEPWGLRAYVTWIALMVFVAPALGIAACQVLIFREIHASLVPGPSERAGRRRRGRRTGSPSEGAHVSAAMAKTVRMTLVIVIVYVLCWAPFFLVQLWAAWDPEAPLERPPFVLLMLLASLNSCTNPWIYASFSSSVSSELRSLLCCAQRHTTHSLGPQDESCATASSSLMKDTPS
measurement name: pIC50
For clarity, pIC50 is expressed as the negative log10 of concentration in mol/L.

With Vasopressin V2 receptor (Rattus norvegicus, UniProt Q00788) as the test system, "O=C(c1ccc(Cl)cc1)N1CCC(N2C(=O)CCc3ccccc32)CC1" showed pIC50 of 4.11

pIC50 for Vasopressin V2 receptor (Rattus norvegicus, UniProt Q00788) with input "CCCCc1ccc(C(=O)N2CCC(N3C(=O)CCc4ccccc43)CC2)cc1" equals 4.08

----------
IC50 for assorted compounds
molecular target: Vasopressin V2 receptor (Rattus norvegicus)

IC50 recorded for this compound, "CC(=O)NCCOc1ccc(C(=O)N2CCC(N3C(=O)CCc4ccccc43)CC2)cc1" , is > 100 µM

Entry "CC(=O)Oc1ccccc1C(=O)N1CCC(N2C(=O)CCc3ccccc32)CC1" — recorded IC50 = > 100 µM

Value of measured IC50 for the entry "O=C(c1ccccc1[N+](=O)[O-])N1CCC(N2C(=O)CCc3ccccc32)CC1" : > 100 µM

IC50 for "O=C(c1cccc([N+](=O)[O-])c1)N1CCC(N2C(=O)CCc3ccccc32)CC1" is > 100 µM

Entry "NCCCCCCCCOc1ccc(C(=O)N2CCC(N3C(=O)CCc4ccccc43)CC2)cc1" — recorded IC50 = 44 µM

----------
molecular target: UniProtKB P30560
pIC50: −log10 of the molar value.
Tick fulfilled if pIC50 is 6 or greater. Tick not fulfilled if pIC50 is less than 6.

As a guide, the following entries are already answered.
In [3]: df
Out[3]:
                         compound_structure    class_label
0  NCCCCCCOc1ccc(C(=O)N2CCC(N3C(=O)CCc4ccccc43)CC2)cc1      fulfilled
1  O=C(c1ccccc1)N1CCC(N2C(=O)CCc3ccccc32)CC1  not fulfilled
2  O=C(c1ccc(Br)cc1)N1CCC(N2C(=O)CCc3ccccc32)CC1      fulfilled
3  O=C(c1cccc(O)c1)N1CCC(N2C(=O)CCc3ccccc32)CC1  not fulfilled
4  O=C(Cc1ccccc1)N1CCC(N2C(=O)CCc3ccccc32)CC1  not fulfilled

Q) Could you please find out whether "Cc1ccc(C(=O)N2CCC(N3C(=O)CCc4ccccc43)CC2)cc1" has pIC50 that meets 6 or exceeds it?
A) fulfilled

Q) Decide: is the reported value of pIC50 for "O=CNCCCCOc1ccc(C(=O)N2CCC(N3C(=O)CCc4ccccc43)CC2)cc1" equal to or greater than 6?
A) fulfilled

----------
biological target: Vasopressin V1a receptor (Rattus norvegicus, UniProt P30560)
pIC50: −log10 of the molar value.
Threshold rule: pIC50 greater than or equal to 6 is true; below that, false.

Examples from the recorded data:
>>> df
                         compound_structure  class_label
0  O=C(c1cnccn1)N1CCC(N2C(=O)CCc3ccccc32)CC1        false
1  CCCOc1ccc(C(=O)N2CCC(N3C(=O)CCc4ccccc43)CC2)cc1         true
2  O=C(c1cccs1)N1CCC(N2C(=O)CCc3ccccc32)CC1        false
3  O=C(c1cccc(Cl)c1)N1CCC(N2C(=O)CCc3ccccc32)CC1        false

Q) Test whether the compound "CC(=O)NCCCCCCOc1ccc(C(=O)N2CCC(N3C(=O)CCc4ccccc43)CC2)cc1" records pIC50 of 6 or higher.
A) true

Q) Is the recorded value of pIC50 equal to or greater than 6 for this compound? "O=CNCCCOc1ccc(C(=O)N2CCC(N3C(=O)CCc4ccccc43)CC2)cc1"
A) true

Q) Decide: pIC50 of "COC(=O)c1ccc(C(=O)N2CCC(N3C(=O)CCc4ccccc43)CC2)cc1" >= 6?
A) false

Q) Does pIC50 meet or surpass 6 for "CC(=O)Nc1ccc(C(=O)N2CCC(N3C(=O)CCc4ccccc43)CC2)cc1" ?
A) false
